Measured values drawn from patent US11596639B2 for this set.

Tested on: H929 human cancer cell lines
Assay overview: Cellular viability / proliferation (Cell TiterGlo, 72 h)
Format: cell-based
Experimental context: Homo sapiens, NCI-H929, 72 h, read-out: GI50 on cellular proliferation of H929 human cancer cell lines, H929 cells, 72 h, Cell TiterGlo, 10% FBS
For each of the compounds below, state its GI50.
All answers are understood in nM, so give the number only.

The compound identified as Cc1cc(OCCCc2c3n(c4c(-c5c(C)nn(C)c5C)c(Cl)ccc24)[C@H](C)CN(c2cn(C)c4cc(C(=N)NO)ccc24)C3=O)cc(C)c1Cl [Example 335] registered its GI50 at 910

Per the records, this compound ( Cc1cc(OCCCc2c3n(c4c(-c5c(C)nn(C)c5C)c(Cl)ccc24)[C@H](C)CN(c2cn(C)c4ccc(-c5ncn(-c6ccccn6)n5)cc24)C3=O)cc(C)c1Cl [Example 647] ) has GI50 equal to 1100

====

Tested on: H929 human cancer cell lines
Assay overview: Cellular viability / proliferation (Cell TiterGlo, 72 h)
Assay type: cell-based
Experimental context: Homo sapiens, NCI-H929, 72 h, read-out: GI50 on cellular proliferation of H929 human cancer cell lines, H929 cells, 72 h, Cell TiterGlo, 10% FBS
Exam item: assign Yes to entries whose GI50 is below 800 nM and No to entries at or above 800 nM. Note that a value of exactly 800 nM receives No.

Query string: Report whether reported GI50 is lower than 800 nM (strictly) for "Cc1cc(OCCCc2c3n(c4c(-c5c(C)nn(C)c5C)c(Cl)ccc24)[C@H](C)CN(c2cn(C)c4cc(C(=O)O)ccc24)C3=O)cc(C)c1Cl"
Result string: Yes

Query string: Just wondering, is GI50 of "COc1ccc(N2C[C@@H](C)n3c(c(CCCOc4cc(C)c(Cl)c(C)c4)c4ccc(Cl)c(-c5c(C)nn(C)c5C)c43)C2=O)c2c1c(C(=O)O)cn2Cc1ccccn1" below 800 nM?
Result string: Yes

Query string: Please state whether GI50 is below 800 nM for "Cc1cc(OCCCc2c3n(c4c(-c5c(C)ncnc5C)c(Cl)ccc24)[C@H](C)CN(c2cccc4cc(C(=O)O)n(C)c24)C3=O)cc(C)c1Cl"
Result string: Yes

Query string: Dear reviewer, please state whether "Cc1cc(OCCCc2c3n(c4c(-c5c(C)ncnc5C)c(Cl)ccc24)[C@H](C)CN(c2cn(C)c4cc(C(=O)O)ccc24)C3=O)cc(C)c1Cl" has GI50 strictly beneath 800 nM.
Result string: Yes

Query string: Hello, is GI50 of the following compound strictly smaller than 800 nM? "Cc1cc(OCCCc2c3n(c4c(-c5c(C)nc(CNC6CCN(C)CC6)nc5C)c(Cl)ccc24)[C@H](C)CN(c2cn(C)c4ccc(C(=O)O)cc24)C3=O)cc(C)c1Cl"
Result string: No

Query string: Determine if "Cc1cc(OCCCc2c3n(c4c(-c5c(C)nn(C)c5C)c(Cl)ccc24)[C@H](C)CN(c2cc(C(=O)O)cc4c2ccn4CCN2CCOCC2)C3=O)cc(C)c1Cl" shows GI50 strictly lower than 800 nM.
Result string: No

Query string: Bench note: check whether "Cc1cc(OCCCc2c3n(c4c(-c5c(C)nc(CN6CCN(C)CC6)nc5C)c(Cl)ccc24)[C@H](C)CN(c2cn(C)c4ccc(-c5ncn(C)n5)cc24)C3=O)cc(C)c1Cl" shows GI50 below 800 nM
Result string: Yes

Query string: Lab note: GI50 threshold 800 nM. Does this compound come in strictly under it? "Cc1cc(OCCCc2c3n(c4c(-c5c(C)nn(C)c5C)c(Cl)ccc24)[C@H](C)CN(c2cccc4c2CCC4=O)C3=O)cc(C)c1Cl"
Result string: No

Query string: Say whether its GI50 is strictly beneath 800 nM. Entry: "Cc1cc(N2C[C@@H](C)n3c(c(CCCOc4cc(C)c(Cl)c(C)c4)c4ccc(Cl)c(-c5c(C)nn(C)c5C)c43)C2=O)c2c(c1)cc(C(=O)O)n2Cc1cc(C2=NCCO2)ccn1"
Result string: No

Query string: Below 800 nM on GI50? Entry "Cc1ccc(Cn2c(C(=O)O)cc3cccc(N4C[C@@H](C)n5c(c(CCCOc6cc(C)c(Cl)c(C)c6)c6ccc(Cl)c(-c7c(C)nn(C)c7C)c65)C4=O)c32)nc1"
Result string: No

Query string: Lab log: compare recorded GI50 with 800 nM; is it strictly lower for "Cc1cc(OCCCc2c3n(c4c(-c5c(C)nn(C)c5C)c(Cl)ccc24)[C@H](C)CN(c2cccc4nc(C(=O)O)ccc24)C3=O)cc(C)c1Cl" ?
Result string: Yes

Query string: Threshold test, GI50 < 800 nM: "Cc1cc(OCCCc2c3n(c4c(-c5c(C)nn(C)c5C)c(Cl)ccc24)[C@H](C)CN(c2ccc4nc(C(=O)O)ccc4c2)C3=O)cc(C)c1Cl"
Result string: No

Query string: hey, is GI50 for "Cc1cc(OCCCc2c3n(c4c(-c5c(C)nn(C)c5C)c(Cl)ccc24)CCCN(c2cc(C(=O)O)c4ccn(CCN5CCOCC5)c4c2)C3=O)cc(C)c1Cl" lower than 800 nM or not?
Result string: No

Query string: Please check: GI50 for "Cc1cc(OCCCc2c3n(c4c(-c5c(C)nn(C)c5C)c(Cl)ccc24)[C@H](C)CN(c2cn(CC(=O)N(C)C)c4ccc(-c5ncccn5)cc24)C3=O)cc(C)c1Cl" , strictly under 800 nM or not?
Result string: Yes

Query string: Please indicate whether the reported GI50 of "COc1ccc(N2C[C@@H](C)n3c(c(CCCOc4cc(C)c(Cl)c(C)c4)c4ccc(Cl)c(-c5c(C)ncnc5C)c43)C2=O)c2c1cc(C(=O)O)n2Cc1cccc(C)n1" is strictly below 800 nM.
Result string: Yes

Query string: Does the reported GI50 of the following compound sit strictly below 800 nM? "Cc1cc(OCCCc2c3n(c4c(-c5c(C)nn(C)c5C)c(Cl)ccc24)[C@H](C)CN(c2cn(C)c4ccc(S(=O)(=O)N5CCN(C)CC5)cc24)C3=O)cc(C)c1Cl"
Result string: No

Query string: Is the reported GI50 for "Cc1cc(N2C[C@@H](C)n3c(c(CCCOc4cc(C)c(Cl)c(C)c4)c4ccc(Cl)c(-c5c(C)ncnc5C)c43)C2=O)c2c(c1)cc(C(=O)O)n2C" strictly below 800 nM?
Result string: Yes

Query string: Confirm or reject: GI50 of "Cc1cc(OCCCc2c3n(c4c(-c5c(C)ncnc5C)c(Cl)ccc24)[C@H](C)CN(c2cn(C)c4ccc(C(N)=O)cc24)C3=O)cc(C)c1Cl" lies strictly below 800 nM
Result string: Yes

Query string: Given the entry "Cc1ccnc(Cn2c(C(=O)O)cc3cc(OCCN(C)C)cc(N4C[C@@H](C)n5c(c(CCCOc6cc(C)c(Cl)c(C)c6)c6ccc(Cl)c(-c7c(C)ncnc7C)c65)C4=O)c32)c1" , would its reported GI50 be below 800 nM?
Result string: No

Query string: Quick check: GI50 of "COCCn1cc(N2C[C@@H](C)n3c(c(CCCOc4cc(C)c(Cl)c(C)c4)c4ccc(Cl)c(-c5c(C)nc(CN6CCN(C)CC6)nc5C)c43)C2=O)c2cc(C(=O)O)ccc21" under 800 nM?
Result string: Yes

Query string: In the record for Cc1cc(OCCCc2c3n(c4c(-c5c(C)nn(C)c5C)c(Cl)ccc24)[C@H](C)CN(c2cccc4cc(C(=O)O)n(C(C)c5ccccn5)c24)C3=O)cc(C)c1Cl (stereo partly drawn) , is GI50 less than 800 nM?
Result string: No
